assaySystem: PKR(wt) (Homo sapiens, UniProt P30613)
Sequence (P30613 whole entry): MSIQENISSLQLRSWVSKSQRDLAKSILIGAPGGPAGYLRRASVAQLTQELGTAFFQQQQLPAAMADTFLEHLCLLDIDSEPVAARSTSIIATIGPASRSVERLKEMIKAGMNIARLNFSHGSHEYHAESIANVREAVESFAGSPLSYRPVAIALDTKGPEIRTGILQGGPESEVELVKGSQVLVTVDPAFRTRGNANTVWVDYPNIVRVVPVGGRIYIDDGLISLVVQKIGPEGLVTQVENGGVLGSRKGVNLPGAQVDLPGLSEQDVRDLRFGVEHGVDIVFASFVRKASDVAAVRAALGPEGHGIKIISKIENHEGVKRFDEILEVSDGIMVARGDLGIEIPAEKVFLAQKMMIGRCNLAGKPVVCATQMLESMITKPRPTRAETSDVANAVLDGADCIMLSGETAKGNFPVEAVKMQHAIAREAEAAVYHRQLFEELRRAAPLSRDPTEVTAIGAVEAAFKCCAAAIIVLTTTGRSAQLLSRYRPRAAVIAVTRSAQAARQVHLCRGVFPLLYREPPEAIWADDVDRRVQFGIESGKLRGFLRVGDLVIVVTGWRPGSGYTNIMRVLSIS
methodNotes: Luminescence Biochemical Assay (Kinase Glo Plus), wild type PKR
appliedConditions: without FBP, read-out: AC50 LUM KGP woFBP MAX % FOLD mean
measuredProperty: Emax

molecule | reading
CN1CCOc2ccc(S(=O)(=O)N3CC4=C(CN(C(=O)[C@H]5CCCO5)C4)C3)cc21 [Example 18-2] | 75 to 250%
CN1CCOc2ccc(S(=O)(=O)N3CC4=C(CN(C(=O)C5CCCC5)C4)C3)cc21 [Example 18-78] | 75 to 250%
CN1CCOc2ccc([C@@H](O)C(=O)N3CC4=C(C3)CN(S(=O)(=O)c3ccc(OC(F)F)cc3)C4)cc21 (single isomer, unassigned) [Example 10-1] | 250 to 500%
O=C(N1CC2=C(C1)CN(S(=O)(=O)c1ccccn1)C2)C1(O)CC1 [Example 18-65] | 250 to 500%
O=C(NCc1ccc(F)cc1)N1CC2=C(C1)CN(S(=O)(=O)c1ccc(C(F)(F)F)nc1)C2 [Example 21-39] | 75 to 250%
O=C([C@H](O)c1ccccc1)N1CC2=C(C1)CN(S(=O)(=O)c1cccnc1C(F)(F)F)C2 [Example 4-2] | 75 to 250%
O=C(C(O)c1cccnc1)N1CC2=C(C1)CN(S(=O)(=O)c1ccc(OC(F)F)cc1)C2 (stereo not drawn) [Example 9-1] | 250 to 500%
O=C(N1CCOCC1)N1CC2=C(C1)CN(S(=O)(=O)c1ccc3ncsc3c1)C2 [Example 6-1] | 250 to 500%
O=C(c1ccc(OCC(F)(F)F)nc1)N1CC2=C(C1)CN(S(=O)(=O)c1ccc3occc3c1)C2 [Example 18-81] | 250 to 500%
O=C([C@H](O)c1ccccc1)N1CC2=C(C1)CN(S(=O)(=O)c1ccccc1OC(F)(F)F)C2 [Example 18-46] | 75 to 250%
O=C(NCc1ccno1)N1CC2=C(C1)CN(S(=O)(=O)c1ccc3ncsc3c1)C2 [Example 21-27] | 75 to 250%
COc1cccc(CNC(=O)N2CC3=C(C2)CN(S(=O)(=O)c2ccc4ncsc4c2)C3)c1 [Example 21-17] | 75 to 250%
O=C(NCc1ccccc1F)N1CC2=C(C1)CN(S(=O)(=O)c1ccc(OC(F)F)cc1)C2 [Example 21-15] | 250 to 500%
N#Cc1ccccc1S(=O)(=O)N1CC2=C(CN(C(=O)[C@H](O)c3ccccc3)C2)C1 [Example 18-47] | 75 to 250%
O=C(C(O)c1ccc(C(F)(F)F)cc1)N1CC2=C(C1)CN(S(=O)(=O)c1ccc(OC(F)F)cc1)C2 (stereo not drawn) [Example 18-32] | 250 to 500%

# credit: patent US12122778B2
